Provide the reported AUC(0-t) of each item.
Experiment: In vivo pharmacokinetic study (PK assay on SD rats)
Settings: Sprague-Dawley, rat, plasma, IV, 1 mg/kg
Express the result in ng·h/mL but write the number alone.

Entry under review: NCc1cccc(-c2cc(COc3ccccc3CC(=O)O)cc(N3CCC4(CC3)CC4)c2)c1F . Reported AUC(0-t)?
3290

Entry under review: NCc1cccc(-c2cc(COc3ccccc3CC(=O)O)cc(N3CCC4(CC3)CC4)c2)c1 . Reported AUC(0-t)?
8030

Entry under review: NCc1cccc(-c2cc(COc3ccc(F)cc3CC(=O)O)cc(N3CCC4(CC3)CC4)c2)c1 . Reported AUC(0-t)?
5660

Entry under review: NCc1nccc(-c2cc(COc3ccccc3CC(=O)O)cc(N3CCC4(CC3)CC4)c2)c1F . Reported AUC(0-t)?
7060

###

Test: In vivo pharmacokinetic study (PK assay on SD rats)
Conditions: Sprague-Dawley, rat, plasma, PO (3% DMSO + 4% Tween), 3 mg/kg
REPORTED METRIC: AUC(0-t) (ng·h/mL)
Express the result in ng·h/mL but write the number alone.

Entry under review: NCc1nccc(-c2cc(COc3ccccc3CC(=O)O)cc(N3CCC4(CC3)CC4)c2)c1F . Reported AUC(0-t)?
7480

###

Assay: In vivo pharmacokinetic study (PK assay on SD rats)
Details: Sprague-Dawley, rat, plasma, PO 3 mg/kg vs IV 1 mg/kg, read-out: Oral bioavailability F
REPORTED METRIC: bioavailability (%)
Express the result in % but write the number alone.

Entry under review: NCc1nccc(-c2cc(COc3ccccc3CC(=O)O)cc(N3CCC4(CC3)CC4)c2)c1F . Reported bioavailability?
35.3

###

Provide the reported Cmax of each item.
Test: In vivo pharmacokinetic study (PK assay on SD rats)
Settings: Sprague-Dawley, rat, plasma, IV, 1 mg/kg
Express the result in ng/mL but write the number alone.

Entry under review: NCc1nccc(-c2cc(COc3ccccc3CC(=O)O)cc(N3CCC4(CC3)CC4)c2)c1F . Reported Cmax?
3410

Entry under review: NCc1cccc(-c2cc(COc3ccccc3CC(=O)O)cc(N3CCC4(CC3)CC4)c2)c1F . Reported Cmax?
3270

Entry under review: NCc1cccc(-c2cc(COc3ccc(F)cc3CC(=O)O)cc(N3CCC4(CC3)CC4)c2)c1 . Reported Cmax?
1840

Entry under review: NCc1cccc(-c2cc(COc3ccccc3CC(=O)O)cc(N3CCC4(CC3)CC4)c2)c1 . Reported Cmax?
1800

###

Provide the reported IC50 of each item.
Express the result in nM but write the number alone.

Please tell me: IC50 of NCc1cccc(-c2cc(COc3ccccc3CC(=O)O)cc(N3CCC4(CCOCC4)CC3)c2)c1 , system complement factor D (Homo sapiens, UniProt P00746)?
6

Please tell me: IC50 of CN1CC2(CCN(c3cc(COc4ccccc4CC(=O)O)cc(-c4cccc(CN)c4)c3)CC2)C1 , system complement factor D (Homo sapiens, UniProt P00746)?
10

Please tell me: IC50 of NCc1cccc(-c2cc(COc3ccccc3CC(=O)O)cc(N3CCC4(CC3)COC4)c2)c1 , system complement factor D (Homo sapiens, UniProt P00746)?
18

Please tell me: IC50 of NCc1cccc(-c2cc(COc3ccccc3CC(=O)O)cc(N3CC4CCC(C4)C3)c2)c1 , system complement factor D (Homo sapiens, UniProt P00746)?
4

Please tell me: IC50 of NCc1cccc(-c2cc(COc3ccccc3CC(=O)O)cc(N3CC4(CCCC4)C3)c2)c1 , system complement factor D (Homo sapiens, UniProt P00746)?
6

Please tell me: IC50 of NCc1cc(F)cc(-c2cc(COc3ccccc3CC(=O)O)cc(N3CCC4(CC3)CC4)c2)c1 , system complement factor D (Homo sapiens, UniProt P00746)?
18

Please tell me: IC50 of NCc1cccc(-c2cc(COc3ccccc3CC(=O)O)cc(N3CCC4(CCOC4)CC3)c2)c1 , system complement factor D (Homo sapiens, UniProt P00746)?
14

Please tell me: IC50 of NCc1cccc(-c2cc(COc3ccccc3CC(=O)O)cc(N3CCC4(CCCC4)C3)c2)c1 , system complement factor D (Homo sapiens, UniProt P00746)?
1
